Target: recombinant rat FAAH (rFAAH) (Rattus norvegicus, UniProt P97612)
Construct: The truncated rat FAAH (rFAAH) was expressed in E. coli and purified; made in house; host or cells: Escherichia coli
Sequence (P97612 30-579 limits assumed): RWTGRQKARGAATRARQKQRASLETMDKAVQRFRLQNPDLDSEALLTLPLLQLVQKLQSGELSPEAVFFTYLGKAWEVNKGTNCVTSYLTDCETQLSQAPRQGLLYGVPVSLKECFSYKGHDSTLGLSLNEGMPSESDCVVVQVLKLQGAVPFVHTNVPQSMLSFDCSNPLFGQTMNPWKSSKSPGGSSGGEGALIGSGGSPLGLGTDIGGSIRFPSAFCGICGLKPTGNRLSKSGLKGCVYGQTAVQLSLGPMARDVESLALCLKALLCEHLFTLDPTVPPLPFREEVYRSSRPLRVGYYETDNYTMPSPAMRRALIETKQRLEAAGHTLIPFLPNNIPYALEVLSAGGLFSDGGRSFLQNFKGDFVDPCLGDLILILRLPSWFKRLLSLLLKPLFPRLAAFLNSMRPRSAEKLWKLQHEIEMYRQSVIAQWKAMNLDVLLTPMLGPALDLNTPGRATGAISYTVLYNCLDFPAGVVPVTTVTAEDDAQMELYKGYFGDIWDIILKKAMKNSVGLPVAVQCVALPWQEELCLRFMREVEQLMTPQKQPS
Assay: Enzyme assay: inhibition of purified recombinant rat FAAH, 14C-oleamide hydrolysis, Ki by Dixon plot
Assay type: biochemical
Settings: Ki, Table 4, (R)-enantiomer, additional FAAH inhibitors
Protocol: Enzyme assays were performed at 20-23° C. with purified recombinant rat FAAH expressed in Escherichia coli or with solubilized COS-7 membrane extracts from cells transiently transfected with human FAAH cDNA (where specifically indicated) in a buffer of 125 mM Tris/1 mM EDTA/0.2% glycerol/0.02% Triton X-100/0.4 mM Hepes, pH 9.0. […] The inhibition assays were performed as follows. […] The ^14C-labeled oleamide (substrate) and oleic acid (product) were extracted with EtOAc and analyzed by TLC as detailed. […]
Can you tell me log10 Ki for the items I'm about to list?
Please be aware that the numbers have been log10-transformed from Ki in nM.

Worked cases, log10 Ki given:
COC(=O)c1nnc(C(=O)C2CCc3cc(Oc4ccccc4)ccc3C2)o1 (single isomer, unassigned) [(R)-35]; 0.20
O=C(c1nnc(-c2ccccn2)o1)C1CCc2cc(Oc3ccccc3)ccc2C1 (single isomer, unassigned) [(R)-36]; 0.80
O=C(c1nnco1)C1CCc2cc(Oc3ccccc3)ccc2C1 (single isomer, unassigned) [(R)-34]; 0.15

State the recorded log10 Ki for every item in the following list.
1. O=C(c1ncc(-c2ccccn2)o1)C1CCc2ccccc2C1 (single isomer, unassigned) [(R)-38]
2. O=C(c1ncco1)C1CCc2ccccc2C1 (single isomer, unassigned) [(R)-37]

[3.51, 4.08]
